Recorded values, source the supplement of paper PMC10567573.

B1: LOXL2 (parent)
chain: HISSCKLGPQVSLDPMKNVTCENG

# Variants of: B1
# Assay details: protein stability index of a GFP-peptide fusion (GPS, HEK-293T) (PSI 1-6); higher = more stable;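 also: lentivirally expressed fusions sorted by FACS into six bins by GFP to DsRed ratio, PSI derived from sequencing read proportions per bin multiplied by bin number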
# Stated conditions: c terminus: a fixed tail appended
Catalogue of protein stability index readings, one per entry.
Provide a numeric answer; units are not to be included.

S12G = 3.93

For `M16H` , what is its reported protein stability index?
4.11

And what about the variant `P15K` ?
3.93

And what about the variant `V11R` ?
3.94
